Where these numbers come from: patent US20240084003A1

Molecular target: T1, murine CD22 protein (ACROBiosystems, SI2-M52Ha) (murine, UniProt P35329 22-708)
T1 construct: extracellular domain; also called murine CD22-ECD; murine CD22-ECD-His
T1 sequence (looked up): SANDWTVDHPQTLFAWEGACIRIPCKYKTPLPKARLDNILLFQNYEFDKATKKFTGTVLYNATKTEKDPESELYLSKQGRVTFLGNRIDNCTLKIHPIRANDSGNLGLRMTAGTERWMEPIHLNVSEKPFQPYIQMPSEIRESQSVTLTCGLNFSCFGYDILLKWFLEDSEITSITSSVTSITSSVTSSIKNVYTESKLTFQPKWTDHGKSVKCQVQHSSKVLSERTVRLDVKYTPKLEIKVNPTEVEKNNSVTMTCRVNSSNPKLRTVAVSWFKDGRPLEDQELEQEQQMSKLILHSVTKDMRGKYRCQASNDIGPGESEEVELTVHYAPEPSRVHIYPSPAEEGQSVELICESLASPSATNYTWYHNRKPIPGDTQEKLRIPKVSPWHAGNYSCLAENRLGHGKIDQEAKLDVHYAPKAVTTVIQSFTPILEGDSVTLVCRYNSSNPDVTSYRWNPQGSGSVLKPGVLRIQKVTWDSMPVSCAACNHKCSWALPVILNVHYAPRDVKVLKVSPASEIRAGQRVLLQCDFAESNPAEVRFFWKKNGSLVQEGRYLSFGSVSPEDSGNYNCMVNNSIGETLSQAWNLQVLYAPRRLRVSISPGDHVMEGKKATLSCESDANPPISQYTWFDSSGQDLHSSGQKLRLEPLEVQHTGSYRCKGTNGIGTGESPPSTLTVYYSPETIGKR
Assay: ELISA, coated murine CD22, 0.0001 nM Ab
assay-readout: OD450 (OD450)
Return type: number; implicit unit OD450.

// below: answered binders
F2.55.1 human-murine chimeric antibody (antibody, human IgG1, lambda, V domains shown, Chimeric, human IgG1 / lambda; VL tied by name) VH: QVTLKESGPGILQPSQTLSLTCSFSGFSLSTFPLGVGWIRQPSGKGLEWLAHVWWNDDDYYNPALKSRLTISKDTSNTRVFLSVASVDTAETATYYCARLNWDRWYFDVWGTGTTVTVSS VL: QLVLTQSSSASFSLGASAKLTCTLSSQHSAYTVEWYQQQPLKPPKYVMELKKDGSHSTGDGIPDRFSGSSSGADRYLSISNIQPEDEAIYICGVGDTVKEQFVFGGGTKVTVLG; 0.06
F2.151.13 human-murine chimeric antibody (antibody, human IgG1, lambda, V domains shown, Chimeric, human IgG1 / lambda) VH: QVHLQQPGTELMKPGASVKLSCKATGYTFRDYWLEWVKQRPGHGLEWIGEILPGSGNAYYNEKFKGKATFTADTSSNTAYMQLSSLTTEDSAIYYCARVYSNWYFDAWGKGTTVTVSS VL: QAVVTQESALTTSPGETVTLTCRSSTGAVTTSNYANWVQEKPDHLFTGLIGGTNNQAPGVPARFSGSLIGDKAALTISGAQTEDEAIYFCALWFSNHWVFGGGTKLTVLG; 0.07
F1.161.7 human-murine chimeric antibody (antibody, human IgG1, kappa, V domains shown, Chimeric, human IgG1 / kappa) VH: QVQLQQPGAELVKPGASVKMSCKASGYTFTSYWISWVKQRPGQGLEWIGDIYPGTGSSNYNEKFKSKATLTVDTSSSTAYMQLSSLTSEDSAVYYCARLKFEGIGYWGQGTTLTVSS VL: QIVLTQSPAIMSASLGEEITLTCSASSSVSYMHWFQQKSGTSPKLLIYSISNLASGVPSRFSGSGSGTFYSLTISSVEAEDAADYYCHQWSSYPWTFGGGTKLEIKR; 0.05
F2.343.16 human-murine chimeric antibody (antibody, human IgG1, lambda, V domains shown, Chimeric, human IgG1 / lambda; VL tied by name) VH: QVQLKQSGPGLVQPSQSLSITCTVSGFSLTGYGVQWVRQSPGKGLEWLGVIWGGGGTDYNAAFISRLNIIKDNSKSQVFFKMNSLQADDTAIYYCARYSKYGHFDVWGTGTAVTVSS VL: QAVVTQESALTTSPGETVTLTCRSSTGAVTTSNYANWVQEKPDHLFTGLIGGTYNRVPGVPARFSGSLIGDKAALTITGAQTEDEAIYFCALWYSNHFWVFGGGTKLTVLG; 0.05

Now, please, on to the next binder.
### Prompt Read off the recorded OD450 for F1.60.9 human-murine chimeric antibody (antibody, human IgG1, kappa, V domains shown, Chimeric, human IgG1 / kappa) VH: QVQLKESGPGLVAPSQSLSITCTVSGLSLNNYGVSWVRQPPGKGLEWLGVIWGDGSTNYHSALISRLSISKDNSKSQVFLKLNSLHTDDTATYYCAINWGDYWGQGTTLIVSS VL: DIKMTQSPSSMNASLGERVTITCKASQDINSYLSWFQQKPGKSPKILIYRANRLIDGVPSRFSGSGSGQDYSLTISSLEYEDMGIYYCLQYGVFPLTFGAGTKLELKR
### Response 0.06
